- subjectOfTest: human α1A‐adrenoceptor (Homo sapiens, UniProt P35348)
- Construct: expressed in transfected cells; host or cells: CHO-K1
- Sequence (P35348 whole entry): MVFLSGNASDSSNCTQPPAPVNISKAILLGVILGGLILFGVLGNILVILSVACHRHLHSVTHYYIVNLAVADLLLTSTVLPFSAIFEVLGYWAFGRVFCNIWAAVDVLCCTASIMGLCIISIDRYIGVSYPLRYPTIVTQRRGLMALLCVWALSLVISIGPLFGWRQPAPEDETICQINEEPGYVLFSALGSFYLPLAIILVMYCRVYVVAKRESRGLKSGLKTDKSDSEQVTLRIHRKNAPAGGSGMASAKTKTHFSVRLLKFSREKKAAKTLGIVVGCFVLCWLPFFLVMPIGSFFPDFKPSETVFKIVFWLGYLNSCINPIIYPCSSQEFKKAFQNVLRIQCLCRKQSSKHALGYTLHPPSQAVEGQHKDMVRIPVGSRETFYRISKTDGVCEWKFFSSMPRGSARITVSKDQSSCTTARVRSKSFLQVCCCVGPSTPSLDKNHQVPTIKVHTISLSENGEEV
- testProtocol: ERK1/2‐phosphorylation (Surefire Alphascreen), CHO‐α1A cells
- Format: cell-based
- experimentalConditions: ERK1/2‐phosphorylation Log EC50
experimentalReadout: EC50 (µM)
Answers are plain numbers, in µM.

Fill in: EC50 of CC(Cc1ccc(O)cc1)NCC(O)c1cc(O)cc(O)c1 (stereo not shown) [Fenoterol] is ___ 2.04

---

Please respond with reported ERK1/2‐phosphorylation % PDBu at 100 µM for every item in the list.
- subjectOfTest: human α1B‐adrenoceptor (Homo sapiens, UniProt P35368)
- Construct: expressed in transfected cells; host or cells: CHO-K1
- Sequence (P35368 1-520): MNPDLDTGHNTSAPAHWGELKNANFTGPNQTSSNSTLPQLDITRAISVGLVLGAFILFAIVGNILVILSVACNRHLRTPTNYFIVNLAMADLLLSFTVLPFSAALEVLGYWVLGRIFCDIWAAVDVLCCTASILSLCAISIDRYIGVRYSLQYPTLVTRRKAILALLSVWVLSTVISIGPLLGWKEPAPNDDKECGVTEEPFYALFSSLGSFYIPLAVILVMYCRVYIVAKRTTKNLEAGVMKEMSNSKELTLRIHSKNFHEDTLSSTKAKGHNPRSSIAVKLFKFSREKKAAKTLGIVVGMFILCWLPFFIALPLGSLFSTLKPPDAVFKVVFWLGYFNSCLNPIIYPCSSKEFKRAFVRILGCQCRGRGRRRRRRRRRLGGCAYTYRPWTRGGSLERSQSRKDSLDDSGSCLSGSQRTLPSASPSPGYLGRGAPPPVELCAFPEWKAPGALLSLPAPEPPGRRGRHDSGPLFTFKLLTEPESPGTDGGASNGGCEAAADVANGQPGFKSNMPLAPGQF
- testProtocol: ERK1/2‐phosphorylation (Surefire Alphascreen), CHO‐α1B cells
- Assay type: cell-based
- experimentalConditions: CHO‐α1B cells; response at 100 µM ligand (no EC50 given)
Give bare numbers, in %.

These solved cases illustrate the format of a correct answer.
COc1ccc(OC)c(C(O)CNC(=O)CN)c1 (stereo not shown) :: 20.4
CC(C)(C)NCC(O)c1ccc(O)c(CO)c1 (stereo not shown) :: 7.1
CC1c2ccccc2CN1CC1=NCCN1 (stereo not shown) :: 47.0

# evaluate next
Which ERK1/2‐phosphorylation % PDBu at 100 µM is listed for CC(CCc1ccc(O)cc1)NCCc1ccc(O)c(O)c1 (stereo not shown) ? 56.3

---

- subjectOfTest: human α1D‐adrenoceptor (full length) (Homo sapiens, UniProt P25100)
- Construct: human α1D‐adrenoceptor (full length) were used; expressed in transfected cells; host or cells: CHO-K1
- Sequence (P25100 whole entry): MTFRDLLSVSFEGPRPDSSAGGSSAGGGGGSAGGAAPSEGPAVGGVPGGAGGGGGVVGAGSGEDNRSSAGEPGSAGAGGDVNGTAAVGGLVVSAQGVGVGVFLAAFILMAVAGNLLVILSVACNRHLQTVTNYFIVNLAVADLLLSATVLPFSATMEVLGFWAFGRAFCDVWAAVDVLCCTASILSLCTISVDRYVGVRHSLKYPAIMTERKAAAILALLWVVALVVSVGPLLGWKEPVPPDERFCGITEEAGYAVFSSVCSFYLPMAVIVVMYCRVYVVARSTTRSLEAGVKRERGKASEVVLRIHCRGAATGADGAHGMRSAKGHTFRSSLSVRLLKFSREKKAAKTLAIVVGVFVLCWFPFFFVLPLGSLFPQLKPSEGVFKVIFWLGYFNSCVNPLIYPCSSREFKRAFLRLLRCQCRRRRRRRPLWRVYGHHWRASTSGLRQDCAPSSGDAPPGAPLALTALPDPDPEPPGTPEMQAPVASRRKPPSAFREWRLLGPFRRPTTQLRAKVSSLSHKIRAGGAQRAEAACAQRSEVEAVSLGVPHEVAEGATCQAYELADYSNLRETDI
- testProtocol: ^3H‐prazosin whole‐cell radioligand binding, CHO‐α1D cells
- experimentalConditions: CHO‐α1D cells, whole‐cell binding; given as IC50 > log value
pIC50: −log10 of the molar value.
experimentalReadout: pIC50

Give the measured pIC50 of `C[C@](N)(Cc1ccc(O)c(O)c1)C(=O)O` . < 4.00

---

- subjectOfTest: human α1A‐adrenoceptor (Homo sapiens, UniProt P35348)
- Construct: expressed in transfected cells; host or cells: CHO-K1
- testProtocol: ^3H‐cAMP accumulation, CHO‐α1A cells
- Assay type: cell-based
- experimentalConditions: CHO‐α1A cells; % of 10 µM forskolin response
experimentalReadout: cAMP accumulation % forskolin (%)
Answers are plain numbers, in %.

Give measured cAMP accumulation % forskolin for every item shown.
1. COc1ccccc1N1CCN(CCN2C(=O)c3ccccc3C(C)(C)C2=O)CC1
2. c1ccc2c(CC3=NCCN3)cccc2c1

1.2
57.9

Hey, can you go through the list below and give me cAMP accumulation % forskolin for every item?
1. CCC1(C2=NCCN2)Cc2ccccc2O1 (centres unmarked)
2. COc1ccc(OC)c(C(O)C(C)N)c1 (centres unmarked)

1. 4.0
2. 120.0

// for each compound in input: emit cAMP accumulation % forskolin
1. Cc1cc(C(C)(C)C)c(O)c(C)c1CC1=NCCN1
2. Cc1cc(C(C)(C)C)cc(C)c1CC1=NCCN1
3. Cc1cccc([C@H](C)c2cnc[nH]2)c1C
4. C=CCc1ccccc1OC(C)C1=NCCN1 (centres unmarked)
5. Nc1cc(Cl)c(N=C2NCCN2)c(Cl)c1
6. c1ccc2c(c1)OCC(C1=NCCN1)O2 (centres unmarked)

1: 43.9; 2: 32.4; 3: 57.6; 4: 82.4; 5: 26.6; 6: 2.6
